- Test system: full-thickness flank skin from the fetal rats
- EXPERIMENT_NOTES: Transepidermal water loss (TEWL) of fetal rat skin explants in organ culture (barrier function)
- Format: cell-based, Sprague-Dawley rats
- CONDITION_DETAILS: dose response, FIGS. 4a-4c
MEASURED_METRIC: concentration of maximal effect on barrier development (TEWL)

1. CCCCCCCC/C=C\CCCCCCCC(=O)O [oleic acid]	approximately 500 μM
2. CCOC(=O)C(C)(C)Oc1ccc(Cl)cc1 [clofibrate]	approximately 500 μM
